The following compounds are listed with their measured IC50 values.
Tested on: K562/S chronic myeloid leukemia cells
experiment description: Viability of leukemia cells, K562/S
Format: cell-based, human
protocol conditions: 72 h, read-out: IC50 for viability of leukemia cell lines
reported property: IC50 (µM)

chemical_string=COc1cc([C@@H]2c3cc4c(cc3[C@H](OC(C)=O)[C@H]3COC(=O)[C@H]23)OCO4)cc(OC)c1OC assayed_system="K562/S chronic myeloid leukemia cells" reported_property=IC50 relational_operator== val=0.08
chemical_string=COc1cc([C@@H]2c3cc4c(cc3[C@H](O)[C@H]3COC(=O)[C@H]23)OCO4)cc(OC)c1O assayed_system="K562/S chronic myeloid leukemia cells" reported_property=IC50 relational_operator== val=0.022
chemical_string=COc1cc([C@@H]2c3cc4c(cc3C(=O)[C@H]3COC(=O)[C@H]23)OCO4)cc(OC)c1OC assayed_system="K562/S chronic myeloid leukemia cells" reported_property=IC50 relational_operator=> val=0.5
chemical_string=COc1cc([C@@H]2c3cc4c(cc3C[C@H]3COC(=O)[C@@H]32)OCO4)cc(OC)c1OC assayed_system="K562/S chronic myeloid leukemia cells" reported_property=IC50 relational_operator== val=0.003

====

Test system: FM55 melanoma cells
experiment description: Cell viability (XTT), FM55
Assay type: cell-based, human
protocol conditions: FM55, melanoma, 48 h (Table 3); read-out: IC50 for cell viability
reported property: IC50 (nM)

chemical_string=COc1cc([C@@H]2c3cc4c(cc3C[C@H]3COC(=O)[C@@H]32)OCO4)cc(OC)c1OC reported_property=IC50 result_unit=nM val=40

====

System: MCF-7 breast cancer cells
experiment description: Cell viability (XTT), MCF-7
Assay type: cell-based, human
protocol conditions: 48 h
reported property: IC50 (µM)

compound="COc1cc([C@@H]2c3cc4c(cc3C[C@H]3COC(=O)[C@@H]32)OCO4)cc(OC)c1OC [Deoxypodophyllotoxin, deoxypodophyllotoxin]" assayed_system="MCF-7 breast cancer cells" reported_property=IC50 val=0.03

====

Each entry below carries its recorded pIC50.
Tested on: HL60 acute myeloid leukemia cells
experiment description: Viability of leukemia cells, HL60
Format: cell-based, human
protocol conditions: Homo sapiens, HL-60; HL60, 72 h; read-out: IC50 for viability of leukemia cell lines
pIC50: −log10 of the molar value.
reported property: pIC50

compound="COc1cc([C@@H]2c3cc4c(cc3[C@H](O)[C@H]3COC(=O)[C@H]23)OCO4)cc(OC)c1OC [Podophyllotoxin, podophyllotoxin]" assayed_system="HL60 acute myeloid leukemia cells" reported_property=pIC50 val=8.52
compound="COc1cc([C@@H]2c3cc4c(cc3[C@@H](O)[C@H]3COC(=O)[C@H]23)OCO4)cc(OC)c1OC [Epipodophyllotoxin, epipodophyllotoxin]" assayed_system="HL60 acute myeloid leukemia cells" reported_property=pIC50 val=6.90

====

System: K562/Vcr30 chronic myeloid leukemia cells (cytostatic-resistant)
experiment description: Viability of leukemia cells, K562/Vcr30
Format: cell-based, human
protocol conditions: K562/Vcr30, 72 h; read-out: IC50 for viability of leukemia cell lines
pIC50: −log10 of the molar value.
The following compounds are shown together with reported pIC50 values.
reported property: pIC50

chemical_string=COc1cc([C@@H]2c3cc4c(cc3[C@H](O)[C@H]3COC(=O)[C@H]23)OCO4)cc(OC)c1O reported_property=pIC50 relational_operator== val=7.30
chemical_string=COc1cc([C@@H]2c3cc4c(cc3C[C@H]3COC(=O)[C@@H]32)OCO4)cc(OC)c1OC reported_property=pIC50 relational_operator== val=8.40
chemical_string=COc1cc([C@@H]2c3cc4c(cc3[C@H](OC(C)=O)[C@H]3COC(=O)[C@H]23)OCO4)cc(OC)c1OC reported_property=pIC50 relational_operator== val=6.85
chemical_string=COc1cc([C@@H]2c3cc4c(cc3C(=O)[C@H]3COC(=O)[C@H]23)OCO4)cc(OC)c1OC reported_property=pIC50 relational_operator=< val=6.30

// data source = patent US7709526B2
